The entries below come with measured apparent KD of K4 kissing-loop reporter values attached.
- Test system: K4 kissing-loop RNA reporter;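 note: bound reporter read as fluorescence of individual clusters on recovered sequencing chips by microscopy, with normalized cluster intensities fitted with a binding model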
- Method Description: apparent KD of K4 kissing-loop reporter; higher = weaker reporter binding
- Run Parameters: Eterna round: R107; input ligand: arginine 13.2 mM
Note: a bare number is incomplete; add the unit.

// solved cases for apparent KD of K4 kissing-loop reporter follow
AUGGUAUUGCGAGGAUAUCCUUCAAACGUGACACUAACGGCAGUGAUGUUGCCGGCGUCGAUCAGAGGAGAAGGCGCGGUGUUAU [Exclusion FMN B GF 23]: 117 nM
UGAUAGGACAGAAGGAGCGGGAGUGAUGUUCCCAAUAGGAGGUCUAGCAAAGCUGGACCCUCCCAGGUAGGUCGCUGUCCUAUCU [ArgBX 3 #SwitchBubble #StaticStem]: 115 nM

Tell me its apparent KD of K4 kissing-loop reporter given "GCCGUAGAUUGAAGGAGCGUGGACCUAUCGCUUGAACAGUGAUGUUGUUUAUCUAGGGAGCCGCAGGUAGGUCGCAAUCUACGGC" as the entry.
355 nM

====

- Tested on: MS2 coat protein
- Method Description: apparent KD of MS2 coat protein; designed switch direction (-1 OFF switch, 1 ON switch): -1; higher = weaker reporter binding
- Run Parameters: input ligand: none
Attribute Measured: apparent KD of MS2 coat protein

Worked cases, answers included:
GGAUUACAUGAGGAUCACCCAUGUGAGGAUAUCGAUGUCCAGUAAUACGUGCGGGACUCGAGAAGGCACUUGGA [salish99-ex1-70] (Eterna round: R96, puzzle: Exclusion 1): 96.3 nM
GCAGCAUUAGGAUAUUGCUAAUGUAACAUGAGGAUCACCCAUGUGUGUCGUUAUUACUUAUAAGAAGGAAUGUGCC [Eternabot (L2) Solution 88] (Eterna round: R97, puzzle: Exclusion 5): 36.4 nM
UGUGUGAGACAGGAUAUGCUGGAUGUGUGGCGGGUAGAAGGGUCUACAUGAGGAUCACCCAUGUGGCCGGUUGG [Ex6 #69] (Eterna round: R97, puzzle: Exclusion 6): 18.9 nM

Provide only the value of recorded apparent KD of MS2 coat protein for ACAUGUUAUCCAUGAUAUCACAUGAGGAUCACCCAUGUUAUGGCGAUUUUGAGGUGUAAGUUUUUUGCUCGUCUUAU [JR_STOV1_Sub058] (Eterna round: R97, puzzle: Sensor, turn-off variant 1)
61.1 nM

Dear colleague, please send me the reported apparent KD of MS2 coat protein for GUAUGAGGAGGAUAUACGUAUCCUUGACCCUGCUAGCGCGGACAUGAGGAUCACCCAUGUAGAAGGUUUCGACA [Eternabot (L1) Solution 46] (Eterna round: R97, puzzle: Exclusion 2) when you can.
38.6 nM

====

- Test system: MS2 coat protein
- Method Description: apparent KD of MS2 coat protein; designed switch direction (-1 OFF switch, 1 ON switch): -1; higher = weaker reporter binding
- Run Parameters: input ligand: FMN 200 uM
Attribute Measured: apparent KD of MS2 coat protein (nM)
All answers are understood in nM, so give the number only.

UUUUGCACGCUGCGGUCCUACAUGAGGAUCACCCAUGUGGUCUGGUGGCGUGGGUCGCCGGACUUGGCUCGUCUUGG [salish99_S_TOV1_R5_035] (Eterna round: R97, puzzle: Sensor, turn-off variant 1): 15.5

Query sequence follows.
Retrieve apparent KD of MS2 coat protein measured for GCAGCGUAGUCCAAAUAGGACAUACAUGAGGAUCACCCAUGUCAGGAUAUGGUCUGGAUUACAGGCCAGAAGGGACAAAGCUGC [Eli exng3 - 003] (Eterna round: R96, puzzle: Exclusion NG 3) and print it.
19
